Where do these numbers come from? They come from ChEMBL document CHEMBL2218924.

- targetUnderTest: Ribosomal protein S6 kinase alpha-5 (Homo sapiens) (UniProt O75582)
- Sequence (O75582 whole entry, looked up): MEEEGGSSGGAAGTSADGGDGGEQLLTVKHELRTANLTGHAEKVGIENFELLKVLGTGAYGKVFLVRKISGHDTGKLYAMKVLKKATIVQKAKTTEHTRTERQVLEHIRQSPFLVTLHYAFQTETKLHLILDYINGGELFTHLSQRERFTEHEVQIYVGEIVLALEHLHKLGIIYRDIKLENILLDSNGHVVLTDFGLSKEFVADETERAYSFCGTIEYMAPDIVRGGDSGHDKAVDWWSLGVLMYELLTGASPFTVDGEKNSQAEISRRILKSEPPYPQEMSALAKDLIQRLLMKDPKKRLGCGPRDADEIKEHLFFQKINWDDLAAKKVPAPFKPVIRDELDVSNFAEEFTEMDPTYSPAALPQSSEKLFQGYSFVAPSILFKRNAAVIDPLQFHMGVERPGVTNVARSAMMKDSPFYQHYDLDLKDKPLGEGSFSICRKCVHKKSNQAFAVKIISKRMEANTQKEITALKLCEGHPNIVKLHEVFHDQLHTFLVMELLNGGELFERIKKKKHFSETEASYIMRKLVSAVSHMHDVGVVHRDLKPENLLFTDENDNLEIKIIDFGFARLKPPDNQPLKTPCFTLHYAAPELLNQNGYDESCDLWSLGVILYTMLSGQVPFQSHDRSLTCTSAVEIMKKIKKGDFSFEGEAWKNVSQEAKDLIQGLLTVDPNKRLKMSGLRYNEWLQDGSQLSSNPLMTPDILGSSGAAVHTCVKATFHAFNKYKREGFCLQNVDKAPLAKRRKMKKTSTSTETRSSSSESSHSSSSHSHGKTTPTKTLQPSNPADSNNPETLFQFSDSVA
- assayConditions: at 10 µM
Classify as follows. Reported residual activity greater than or equal to 90%: TRUE. Reported residual activity below: FALSE.

| substanceSmiles | label |
| --- | --- |
| CC(C)(C)n1nc(Cc2cccc3ccccc23)c2c(N)ncnc21 | TRUE |
| O=S(=O)(NCCNC/C=C/c1ccc(Br)cc1)c1cccc2cnccc12 | FALSE |
| Nc1n[nH]c2nc3ccccc3nc12 | FALSE |
| O=C(c1ccccc1)c1ccc(N2CCOCC2)cc1O | FALSE |
| COc1cc2nccc(Oc3ccc(NC(=S)NC(=O)c4ccccc4C)cc3)c2cc1OC | TRUE |

Task: I'd appreciate it if you could say whether CC(C)[C@H](CO)Nc1nc(Nc2cc(N)cc(Cl)c2)c2ncn(C(C)C)c2n1 has residual activity at least equal to 90%.
Result: FALSE

Task: And for O=C1NC(=O)C(c2c[nH]c3ccccc23)=C1c1c[nH]c2ccccc12 ?
Result: FALSE

Task: And for CCCC(=O)Oc1ccc2[nH]c(C(=O)c3cc4ccccc4[nH]3)cc2c1 ?
Result: TRUE

Task: And for N#C/C(=C1/Nc2ccccc2S1)c1ccnc(NCCc2cccnc2)n1 ?
Result: FALSE

Task: And for Cn1c2ccccc2c2c3c(c4c5ccccc5n(CCC#N)c4c21)CNC3=O ?
Result: FALSE
